target: 5-hydroxytryptamine receptor 2A (Rattus norvegicus, UniProt P14842); assay: Displacement of [3H]MDL100907 from 5HT2A receptor in Sprague-Dawley rat brain by liquid scintillation spectroscopy
Sequence (P14842 whole entry): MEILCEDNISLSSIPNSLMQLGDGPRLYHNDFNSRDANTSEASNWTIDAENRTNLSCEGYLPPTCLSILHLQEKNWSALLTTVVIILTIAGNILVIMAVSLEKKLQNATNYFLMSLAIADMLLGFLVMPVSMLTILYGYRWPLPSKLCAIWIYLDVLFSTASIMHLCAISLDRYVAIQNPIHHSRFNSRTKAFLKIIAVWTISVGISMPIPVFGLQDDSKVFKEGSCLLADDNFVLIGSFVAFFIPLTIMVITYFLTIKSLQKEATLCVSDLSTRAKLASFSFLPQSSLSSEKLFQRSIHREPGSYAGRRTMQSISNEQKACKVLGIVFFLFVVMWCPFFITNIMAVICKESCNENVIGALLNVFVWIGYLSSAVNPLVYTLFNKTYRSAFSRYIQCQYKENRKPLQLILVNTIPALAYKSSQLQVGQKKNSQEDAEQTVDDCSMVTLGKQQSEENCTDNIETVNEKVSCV
Measured Quantity: Ki (nM)
Provide the reading as a plain figure in nM.

CN(C)CCc1c[nH]c2cccc(O)c12 [PSILOCIN]
323
CC(N)Cc1cc(F)c(Br)cc1F (racemic)
2510
CN(C)CCc1c[nH]c2sccc12
3680
CSc1c2c(c(CC(C)N)c3c1OCC3)CCO2 (racemic)
476
CN(C)CCc1c[nH]c2ccsc12
4610
CC(N)Cc1c2ccccc2c(Br)c2ccccc12 (racemic)
313

Please turn your attention to the following entry.
Fill blank: measured Ki of the compound "CN(C)CCc1c[nH]c2ccccc12" is ____. 1640
